Known phosphorylation enrichment of a selection of sequences
# Test system: c-Abl (mouse)
# measurement_protocol: phosphorylation enrichment, bacterial display (enrichment ratio); higher = better substrate or ligand; peptides without Tyr show the background;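 also: 11-residue human phosphosite peptides and single-mutation variants displayed on the E. coli surface, counted by deep sequencing, each peptide's frequency after selection divided by its frequency in the unselected input library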;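 also: frequency after pTyr selection over input frequency; kinase dosed for 20-30% of maximal phosphorylation in three min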
When you answer, write just the number.

Answered examples (2):
EQLRAYLEGTC [HLA-C_Y183]: 0.53
CATIHYNFMCN [TP53_Y234_T230A_YF]: 0.757

Qu. Quick check: phosphorylation enrichment of YRQLQYCPSVE [CTNND2_Y508] ?
Ans. 0.861

----------
phosphorylation enrichment for assorted sequences
# study_target: Fes (UniProt P07332)
# Sequence (P07332 whole entry, looked up): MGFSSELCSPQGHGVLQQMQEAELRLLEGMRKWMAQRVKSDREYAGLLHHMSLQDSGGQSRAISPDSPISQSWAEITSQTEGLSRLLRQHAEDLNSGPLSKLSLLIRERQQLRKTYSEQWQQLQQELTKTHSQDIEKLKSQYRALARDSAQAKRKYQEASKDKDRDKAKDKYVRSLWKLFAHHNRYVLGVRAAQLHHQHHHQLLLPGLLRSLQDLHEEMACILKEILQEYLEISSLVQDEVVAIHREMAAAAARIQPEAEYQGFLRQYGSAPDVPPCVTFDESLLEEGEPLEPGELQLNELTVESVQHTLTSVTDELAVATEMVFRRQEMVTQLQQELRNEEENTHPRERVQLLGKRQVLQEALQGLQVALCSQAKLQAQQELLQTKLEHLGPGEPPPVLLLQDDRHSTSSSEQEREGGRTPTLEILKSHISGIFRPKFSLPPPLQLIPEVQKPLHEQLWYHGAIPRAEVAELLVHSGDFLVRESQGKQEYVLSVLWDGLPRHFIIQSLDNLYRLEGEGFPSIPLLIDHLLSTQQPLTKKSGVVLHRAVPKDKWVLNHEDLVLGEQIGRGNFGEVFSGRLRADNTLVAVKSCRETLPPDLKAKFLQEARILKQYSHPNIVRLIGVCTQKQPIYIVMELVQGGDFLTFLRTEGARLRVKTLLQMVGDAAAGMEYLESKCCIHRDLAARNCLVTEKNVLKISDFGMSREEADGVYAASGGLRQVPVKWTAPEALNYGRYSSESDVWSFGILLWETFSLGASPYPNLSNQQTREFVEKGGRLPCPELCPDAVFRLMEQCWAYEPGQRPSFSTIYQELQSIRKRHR
# measurement_protocol: phosphorylation enrichment, bacterial display (enrichment ratio); higher = better substrate or ligand; peptides without Tyr show the background
Answer field: number only, no words.

Examples with their reported phosphorylation enrichment follow.
GIVEDYRPPLY [ACVRL1_Y421_F425L]: 0.918
TLSGTYQYIIA [FOXL2_Y81_I80T]: 1.08
EGLRRYLENGK [HLA-A_Y195_W191G]: 0.473
SGPRCYTIAAL [TTR_Y125_R124C]: 0.669
LNWIFYKDQTG [RS1_Y166_YF]: 1.72
GVRFTYTIDGS [DCX_Y105_I104T_YF]: 1.33
CKRQFYLFKGK [RSPO4_Y112_YF]: 1.01
QFKGKYLAKHN [CASK_Y712_D710G_YF]: 0.616
VGEGPYLLSDL [ABCC12_Y7_I9L]: 0.941
INQGPYENHSV [ATP6V1B1_Y462_R465H]: 0.804

Qu. Form field: reported phosphorylation enrichment of IMNLLYHVVGW [GBA_Y412_T408M]
Ans. 0.872

Qu. // lookup phosphorylation enrichment for CEHFSYYGMKA [SLC15A2_Y60_R57H]
Ans. 0.933

Qu. Reported phosphorylation enrichment, sequence LKGQVYILGLE [ASS1_Y359_R363L] : ____
Ans. 1.99

Qu. What value of measured phosphorylation enrichment is listed for NQSVRYDSSLK [ABCC8_Y1353_L1349Q] ?
Ans. 0.601

Qu. Need phosphorylation enrichment of SASQEYHIVKK [PDZD2_Y557] , thanks.
Ans. 0.676

Qu. Record request: phosphorylation enrichment value, item QGIIIYKAAFF [SLC25A4_Y187_R188K_YF]
Ans. 1.36

Qu. Please look up its phosphorylation enrichment: SLMNQYVNKEF [RAB7A_Y28_K32E]
Ans. 0.66

Qu. Quick one: phosphorylation enrichment for KKGMIYGGGGG [PSME1_Y249_T244K] ?
Ans. 0.495

Qu. Entry under review: RKGGSYTQAAS [HLA-A_Y344] . Reported phosphorylation enrichment?
Ans. 0.885

Qu. I have this sequence here, SYCYRYRCAAW [SUMF1_Y344_R349W] , and I need its recorded phosphorylation enrichment.
Ans. 0.785

Qu. // query phosphorylation enrichment value for entry DHYNQYEQQKM [CHD7_Y75]
Ans. 0.728

Qu. Look at this sequence and give its reported phosphorylation enrichment. KDAGDYKFKAK [LRIT3_Y326_C328Y_YF]
Ans. 0.613

Qu. Which value of phosphorylation enrichment has been reported for LSCLAYSGKDA [FXN_Y205_S202C] in the records?
Ans. 1.44

Qu. // lookup phosphorylation enrichment for CSSGGYEPRGR [FUS_Y239_R234C]
Ans. 0.861

Qu. So what does the record say about phosphorylation enrichment for TTPAVYARVTK [CTRB2_Y246_A250T] ?
Ans. 0.442

Qu. Fill in: phosphorylation enrichment of FYLGAYDRFLP [SLC22A5_Y486_V481F] is ___
Ans. 1.28

Qu. Given the sequence ERDFTYDELLN [EIF2S2_Y176_E177D_YF] , what is its reported phosphorylation enrichment?
Ans. 1.33

Qu. Reported phosphorylation enrichment, sequence STGRSYAGVAV [KLHL3_Y577] : ____
Ans. 0.466
